# Test system: L1210 leukemia ip in BDF1 mice, survival T/C
# methodNotes: NCI In Vivo Anticancer Drug Screen. Data for tumor model L1210 Leukemia (intraperitoneal) in B6D2F1 (BDF1) mice
# experimentalConditions: endpoint: mean survival time; dose: 25.0 mg/kg/injection; schedule: Q01DX009 (ip); vehicle: saline; higher = longer survival
Toxic doses and inconclusive results are not listed.
reportedProperty: T/C

>>> result("OCC1OC([Se][Se]C2OC(CO)C(O)C(O)C2O)C(O)C(O)C1O (centres undefined)")
"100 % of control"
>>> result("Nn1cnnc1")
"93 % of control"
>>> result("Cc1nc(CN(C)C)c2cnccn12")
"109 % of control"
>>> result("CC(=O)OC1C(CO)OC2C1OC1=NC(N)=NCN12 (centres undefined)")
"96 % of control"
>>> result("CC(=O)C(C(C)=O)c1ccccc1.CC(=O)C(C(C)=O)c1ccccc1.[Ni]")
"102 % of control"

Exercise: Give measured T/C for NC(N)=N/N=C/c1cccc2ccccc12 (L1210 leukemia ip in BDF1 mice, survival T/C).
Solution: 88 % of control

Exercise: Give measured T/C for CN(C)CCC(=O)/C=C\c1ccccc1 (L1210 leukemia ip in BDF1 mice, survival T/C).
Solution: 91 % of control

Exercise: Give measured T/C for CC1(C)OCC2SC(n3cnc4c(N)ncnc43)C(O)C2O1 (centres undefined) (L1210 leukemia ip in BDF1 mice, survival T/C).
Solution: 94 % of control

----------
# System: L1210 leukemia ip in BDF1 mice, survival T/C
# methodNotes: NCI In Vivo Anticancer Drug Screen. Data for tumor model L1210 Leukemia (intraperitoneal) in B6D2F1 (BDF1) mice
# experimentalConditions: endpoint: mean survival time; dose: 30.0 mg/kg/injection; schedule: Q01DX Z (ip); vehicle: saline; higher = longer survival
Toxic doses and inconclusive results are not listed.
T/C reference

>>> result("CCCCN(CCCC)CC(=O)Nc1ccc(C(=O)OCC(C)C)cc1")
"98 % of control"

Exercise: For the compound COc1c(C(=O)Nc2ccc(C3=NCCN3)cc2)cccc1C(=O)Nc1ccc(C2=NCCN2)cc1 , give its reported T/C.
Solution: 101 % of control

Exercise: For the compound Cc1cc(N)c2cc(NC(=O)CCCCCCCCC(=O)Nc3ccc4nc(C)cc(N)c4c3)ccc2n1 , give its reported T/C.
Solution: 115 % of control

Exercise: For the compound Nc1nc(=O)n(C2CC(O)C(CO)O2)cc1F (centres undefined) , give its reported T/C.
Solution: 105 % of control

----------
# Test system: L1210 leukemia ip in BDF1 mice, survival T/C
# methodNotes: NCI In Vivo Anticancer Drug Screen. Data for tumor model L1210 Leukemia (intraperitoneal) in B6D2F1 (BDF1) mice
# experimentalConditions: endpoint: mean survival time; dose: 400.0 mg/kg/injection; schedule: Q01DX001 (ip); vehicle: saline
Inconclusive results and toxic doses are left out. No stated cut-off is given here; in the data, active means T/C of 150% or more; inactive means T/C below 125%.
Your response should consist of one outcome taken from active, inactive

>>> classification("COC(=O)c1cc(C)cc(Oc2ccccc2N)c1C")
"inactive"
>>> classification("O=[N+]([O-])Nc1ccnnc1")
"inactive"
>>> classification("Oc1ccc(Br)cc1/C=N/N1CCN(/N=C/c2cc(Br)ccc2O)CC1")
"inactive"
>>> classification("O=C(O)c1cc(Cl)c(Cl)cc1Cl")
"inactive"
>>> classification("CC1CN(C=O)CCN1C=O (centres undefined)")
"inactive"
>>> classification("CC(=O)NC(=O)NC(C)=O")
"inactive"
>>> classification("CC(C)(CCN)[N+](=O)[O-]")
"inactive"
>>> classification("CCOC=N")
"inactive"
>>> classification("CCCCSc1ncnc2c1ncn2C1CCCCO1 (centres undefined)")
"inactive"
>>> classification("CC(C)(CO)N=Cc1ccc(Cl)cc1Cl")
"inactive"

Please find the next compound below.
Exercise: Can you look up the reported call for Cc1cc(/C=C2\C=Cc3ccccc32)ccc1N(C)C for me?
Solution: inactive

----------
# System: L1210 leukemia ip in BDF1 mice, survival T/C
# methodNotes: NCI In Vivo Anticancer Drug Screen. Data for tumor model L1210 Leukemia (intraperitoneal) in B6D2F1 (BDF1) mice
# experimentalConditions: endpoint: mean survival time; dose: 100.0 mg/kg/injection; schedule: Q01DX009 (ip); vehicle: saline with Tween-80; higher = longer survival
Toxic doses and inconclusive results are not listed.
T/C reference

Study these solved cases before continuing.
>>> result("CN(C)/N=C/c1ccc(-c2ccccc2)cc1")
"95 % of control"
>>> result("O=C1CCC(C(=O)NC(Cc2cncn2Cc2ccccc2)C(=O)NC(COCc2ccccc2)Cc2c[nH]c3ccccc23)N1 (stereo unspecified)")
"96 % of control"
>>> result("Cc1ccc([N+](=O)[O-])cc1NC(=O)SCCOC(=O)COc1ccc(Cl)cc1Cl")
"94 % of control"
>>> result("CCOc1ccccc1NC(=O)Nc1cccc(F)c1")
"104 % of control"
>>> result("C=CCn1c2ccccc2c2c(C)c3cnccc3c(C)c21")
"111 % of control"

Please turn your attention to the following entry.
Exercise: For the molecule Cc1ccc(NS(=O)(=O)c2ccccc2)nc1 , give its reported T/C.
Solution: 96 % of control

----------
# Test system: L1210 leukemia ip in BDF1 mice, survival T/C
# methodNotes: NCI In Vivo Anticancer Drug Screen. Data for tumor model L1210 Leukemia (intraperitoneal) in B6D2F1 (BDF1) mice
# experimentalConditions: endpoint: mean survival time; dose: 200.0 mg/kg/injection; schedule: Q01DX001 (ip); vehicle: other; higher = longer survival
Inconclusive results and toxic doses are left out.
T/C reference

>>> result("CCSc1nc2ccccc2s1")
"98 % of control"
>>> result("CC(=O)C(Br)C(C)=O.CC(=O)C(Br)C(C)=O.CC(=O)C(Br)C(C)=O.[Rh]")
"94 % of control"
>>> result("O=c1[nH]nc(SCc2ccccc2)c(=S)[nH]1")
"156 % of control"
>>> result("CC#CC(C)(O)C(=O)OC (stereo unspecified)")
"98 % of control"
>>> result("C/C(=N/O)c1ccc[nH]1")
"103 % of control"

Exercise: For the compound CC(C)CC(NC(=O)OC(C)(C)C)C(=O)O (stereo unspecified) , give its reported T/C.
Solution: 93 % of control

Exercise: For the compound O=C(N/N=C\c1ccc(O)cc1O)c1ccco1 , give its reported T/C.
Solution: 93 % of control

Exercise: For the compound CC1CCC2C(C)C3C(CC4C5CCC6CC(O)CCC6(C)C5CCC43C)N2C1 (stereo unspecified) , give its reported T/C.
Solution: 96 % of control

Exercise: For the compound O=C1/C(=C\c2ccccn2)c2ccccc2N1Cl , give its reported T/C.
Solution: 92 % of control

Exercise: For the compound CCOC(=O)c1[nH]c(=S)n(-c2ccccc2)c1C(=O)OCC , give its reported T/C.
Solution: 108 % of control

Exercise: For the compound CCOC(=O)Sc1ccccc1 , give its reported T/C.
Solution: 94 % of control

----------
# Tested on: L1210 leukemia ip in BDF1 mice, survival T/C
# methodNotes: NCI In Vivo Anticancer Drug Screen. Data for tumor model L1210 Leukemia (intraperitoneal) in B6D2F1 (BDF1) mice
# experimentalConditions: endpoint: mean survival time; dose: 100.0 mg/kg/injection; schedule: Q01DX009 (ip); vehicle: Klucel (hydroxypropylcellulose) (HPC); higher = longer survival
Toxic doses and inconclusive results are not listed.
T/C reference

>>> result("COc1ccc2c(n1)Sc1c(N)nc(N)nc1N2")
"103 % of control"
>>> result("CCCCCCc1c(C)nc(N)[nH]c1=O")
"105 % of control"
>>> result("CCc1ccccc1NC(=O)Nc1ccccc1C")
"87 % of control"
>>> result("Nc1cc(N)cc(Cc2ccccc2)c1")
"95 % of control"
>>> result("COC(=O)c1cc(=O)c2cccc(C(=O)O)c2[nH]1")
"98 % of control"
>>> result("CCCCCCCCCCCCCCCCN(C(=S)c1ccccc1)c1ccccc1")
"89 % of control"
>>> result("CCOc1ccc(NC(=O)C(Br)C(Br)C(=O)O)cc1 (stereo not drawn)")
"94 % of control"
>>> result("c1ccc2c3c([nH]c2c1)CCCC3")
"97 % of control"

Exercise: For the compound CCC(C)c1ccccc1OC(=O)Nc1ccc(OC)cc1 (stereo not drawn) , give its reported T/C.
Solution: 92 % of control

Exercise: For the compound COc1ccc(OC)c(NC(=O)Oc2ccccc2F)c1 , give its reported T/C.
Solution: 93 % of control

Exercise: For the compound O=C(SCC(NSc1ccccc1[N+](=O)[O-])C(=O)O)c1ccccc1 (stereo not drawn) , give its reported T/C.
Solution: 98 % of control

Exercise: For the compound Cc1cc(C)c(NC(=O)NC(C)C)c(C)c1 , give its reported T/C.
Solution: 104 % of control

Exercise: For the compound O=C1OC(c2ccc([N+](=O)[O-])cc2)=N/C1=C\C=C\c1ccccc1 , give its reported T/C.
Solution: 98 % of control

Sourced from PubChem BioAssay AID248
